src = paper PMC7730441

# remaining activity at 10 µM per entry
Biological target: AChE (Type VI-S; from Electrophorus electricus) (Electrophorus electricus, UniProt O42275)
Construct: AChE (Type VI-S; from Electrophorus electricus); purchased Sigma-Aldrich Type VI-S (catalogue number not given)
Sequence (O42275 24-633): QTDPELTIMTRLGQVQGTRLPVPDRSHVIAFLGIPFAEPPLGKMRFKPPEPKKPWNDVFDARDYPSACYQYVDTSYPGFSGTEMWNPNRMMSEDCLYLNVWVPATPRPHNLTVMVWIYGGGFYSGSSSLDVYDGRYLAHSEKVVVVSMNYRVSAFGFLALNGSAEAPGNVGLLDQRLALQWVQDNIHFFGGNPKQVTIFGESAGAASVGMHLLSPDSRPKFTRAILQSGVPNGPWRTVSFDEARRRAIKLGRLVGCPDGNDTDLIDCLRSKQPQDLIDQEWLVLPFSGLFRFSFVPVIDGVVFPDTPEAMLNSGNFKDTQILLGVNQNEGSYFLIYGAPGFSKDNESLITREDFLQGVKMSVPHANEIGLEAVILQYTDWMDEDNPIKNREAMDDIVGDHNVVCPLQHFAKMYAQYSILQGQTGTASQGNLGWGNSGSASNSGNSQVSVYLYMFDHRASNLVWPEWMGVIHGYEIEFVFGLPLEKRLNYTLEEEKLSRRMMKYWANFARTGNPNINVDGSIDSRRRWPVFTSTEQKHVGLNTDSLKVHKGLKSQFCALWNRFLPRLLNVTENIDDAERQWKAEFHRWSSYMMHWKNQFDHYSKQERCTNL
Assay: biochemical
Conditions: read-out: Residual activity at 10 µM (%) AChE, inhibitor 10 µM; 15 min preincubation

compound	system	property.measured	measured.value
CC(=O)O[C@@H]1[C@H](OC(=O)C=C(C)C)c2c(ccc3ccc(=O)oc23)OC1(C)C	AChE (Type VI-S; from Electrophorus electricus) (Electrophorus electricus, UniProt O42275)	remaining activity at 10 µM	92.1%
C/C=C(/C)C(=O)O[C@@H]1c2c(ccc3ccc(=O)oc23)OC(C)(C)[C@@H]1OC(=O)C=C(C)C	AChE (Type VI-S; from Electrophorus electricus) (Electrophorus electricus, UniProt O42275)	remaining activity at 10 µM	96%

What does the record list as remaining activity at 10 µM for C/C=C(/C)C(=O)OC1c2c(ccc3ccc(=O)oc23)OC(C)(C)C1OC(=O)CC(C)C (stereo not drawn) ? 88.1%

====

Biological target: AChE (Type VI-S; from Electrophorus electricus) (Electrophorus electricus)
Construct: AChE (Type VI-S; from Electrophorus electricus); purchased Sigma-Aldrich Type VI-S (catalogue number not given)
Test: biochemical
Conditions: read-out: Residual activity at 10 µM (%) AChE, inhibitor 10 µM; 15 min preincubation
property.measured: remaining activity at 10 µM (%)
Numeric answer only, unit % assumed.

molecule	measured.value
CCC(C)C(=O)O[C@@H]1c2c(ccc3ccc(=O)oc23)OC(C)(C)[C@@H]1OC(=O)C=C(C)C (stereo partly shown) [PJ10]	86.4
CCC(C)C(=O)O[C@@H]1c2c(ccc3ccc(=O)oc23)OC(C)(C)[C@@H]1OC(C)=O (stereo partly shown) [PJ3, hyuganin]	97.2

What does the record list as remaining activity at 10 µM for CC(C)=CC(=O)O[C@@H]1c2c(ccc3ccc(=O)oc23)OC(C)(C)[C@@H]1OC(=O)C=C(C)C [PJ4, 3′,4′-disenecioylkhellactone] ? 85.4

====

Target: AChE (Type VI-S; from Electrophorus electricus) (Electrophorus electricus)
Construct: AChE (Type VI-S; from Electrophorus electricus); purchased Sigma-Aldrich Type VI-S (catalogue number not given)
Assay: biochemical
Conditions: 15 min preincubation; read-out: IC50 (µM) AChE
# IC50 per entry
Numeric answer only, unit µM assumed.

compound	unit.spec	measured.value
C/C=C(/C)C(=O)O[C@@H]1c2c(ccc3ccc(=O)oc23)OC(C)(C)[C@@H]1OC(=O)C(C)CC (stereo partly shown)	µM	29

What does the record list as IC50 for CC(C)CC(=O)O[C@@H]1c2c(ccc3ccc(=O)oc23)OC(C)(C)[C@@H]1OC(=O)CC(C)C ? 28.1

What does the record list as IC50 for CC(C)=CC(=O)O[C@@H]1c2c(ccc3ccc(=O)oc23)OC(C)(C)[C@@H]1OC(=O)C=C(C)C ? 21.3

What does the record list as IC50 for C/C=C(/C)C(=O)O[C@@H]1[C@H](OC(=O)C(C)CC)c2c(ccc3ccc(=O)oc23)OC1(C)C (stereo partly shown) ? 9.28

What does the record list as IC50 for CCC(C)C(=O)O[C@@H]1c2c(ccc3ccc(=O)oc23)OC(C)(C)[C@@H]1OC(=O)CC(C)C (stereo partly shown) ? 10

====

Target: AChE (Type VI-S; from Electrophorus electricus) (Electrophorus electricus, UniProt O42275)
Construct: AChE (Type VI-S; from Electrophorus electricus); purchased Sigma-Aldrich Type VI-S (catalogue number not given)
Experiment: biochemical
Conditions: 15 min preincubation; read-out: IC50 (µM) AChE
# IC50 per entry
Numeric answer only, unit µM assumed.

molecule.smiles	unit.spec	IC50
CC(C)=CC(=O)O[C@@H]1[C@H](OC(=O)CC(C)C)c2c(ccc3ccc(=O)oc23)OC1(C)C	µM	31.6
C/C=C(/C)C(=O)O[C@@H]1[C@H](OC(=O)C=C(C)C)c2c(ccc3ccc(=O)oc23)OC1(C)C	µM	25.6

Query molecule follows.
What does the record list as IC50 for CC(C)=CC(=O)O[C@@H]1c2c(ccc3ccc(=O)oc23)OC(C)(C)[C@@H]1OC(=O)CC(C)C ? 36.1

====

Biological target: recombinant human MAO-B (Homo sapiens, UniProt P27338)
Construct: purchased Sigma-Aldrich
Sequence (P27338 whole entry): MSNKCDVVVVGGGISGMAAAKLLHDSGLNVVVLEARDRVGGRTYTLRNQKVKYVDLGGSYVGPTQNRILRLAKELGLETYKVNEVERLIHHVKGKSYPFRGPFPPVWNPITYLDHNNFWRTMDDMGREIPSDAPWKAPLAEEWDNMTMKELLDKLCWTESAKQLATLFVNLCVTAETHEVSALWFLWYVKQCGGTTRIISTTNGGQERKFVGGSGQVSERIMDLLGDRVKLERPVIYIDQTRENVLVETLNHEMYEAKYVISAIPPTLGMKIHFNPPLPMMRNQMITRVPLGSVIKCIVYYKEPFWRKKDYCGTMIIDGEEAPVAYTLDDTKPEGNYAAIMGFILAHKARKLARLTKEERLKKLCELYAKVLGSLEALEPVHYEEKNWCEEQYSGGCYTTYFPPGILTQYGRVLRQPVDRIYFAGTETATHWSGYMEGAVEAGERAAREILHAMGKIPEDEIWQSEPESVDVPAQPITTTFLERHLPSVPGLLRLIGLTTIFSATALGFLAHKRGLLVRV
Experiment: MAO-B inhibition assay (benzylamine)
Format: biochemical
Conditions: inhibitor 10 µM; read-out: Residual activity at 10 µM (%) MAO-B
Experimental: AChE assays were performed as described by Ellman et al.[41] with slight modifications. […] DTNB was used for color development, caused by reaction between it and thiocholine (a product of AChE). […] Inhibitions of the activities of AChE, BChE, MAO-A, and MAO-B by the 15 compounds were investigated at an inhibitor concentration of 10 µM. IC50 values were also determined. […] The inhibition types and Ki values were determined using Lineweaver–Burk Plots and secondary plots.
property.measured: remaining activity at 10 µM (%)
Numeric answer only, unit % assumed.

Reference set, count: 4
molecule	unit.spec	measured.value
CC(C)=CC(=O)O[C@@H]1c2c(ccc3ccc(=O)oc23)OC(C)(C)[C@@H]1OC(=O)C=C(C)C	%	95.6
CC(C)CC(=O)O[C@@H]1c2c(ccc3ccc(=O)oc23)OC(C)(C)[C@@H]1OC(=O)CC(C)C	%	66.1
CCC(C)C(=O)O[C@@H]1c2c(ccc3ccc(=O)oc23)OC(C)(C)[C@@H]1OC(=O)CC(C)C (stereo partly drawn)	%	73.3
C/C=C(/C)C(=O)O[C@@H]1[C@H](OC(=O)C=C(C)C)c2c(ccc3ccc(=O)oc23)OC1(C)C	%	63.1

What does the record list as remaining activity at 10 µM for CC(C)=CC(=O)O[C@@H]1[C@H](OC(=O)CC(C)C)c2c(ccc3ccc(=O)oc23)OC1(C)C ? 68.5

What does the record list as remaining activity at 10 µM for C/C=C(/C)C(=O)OC1c2c(ccc3ccc(=O)oc23)OC(C)(C)C1OC(=O)CC(C)C (stereo not drawn) ? 89.1

====

Target: BChE (from equine serum) (Equus caballus)
Construct: BChE (from equine serum); purchased Sigma-Aldrich; host or cells: equine serum
Sequence (P81908 whole entry): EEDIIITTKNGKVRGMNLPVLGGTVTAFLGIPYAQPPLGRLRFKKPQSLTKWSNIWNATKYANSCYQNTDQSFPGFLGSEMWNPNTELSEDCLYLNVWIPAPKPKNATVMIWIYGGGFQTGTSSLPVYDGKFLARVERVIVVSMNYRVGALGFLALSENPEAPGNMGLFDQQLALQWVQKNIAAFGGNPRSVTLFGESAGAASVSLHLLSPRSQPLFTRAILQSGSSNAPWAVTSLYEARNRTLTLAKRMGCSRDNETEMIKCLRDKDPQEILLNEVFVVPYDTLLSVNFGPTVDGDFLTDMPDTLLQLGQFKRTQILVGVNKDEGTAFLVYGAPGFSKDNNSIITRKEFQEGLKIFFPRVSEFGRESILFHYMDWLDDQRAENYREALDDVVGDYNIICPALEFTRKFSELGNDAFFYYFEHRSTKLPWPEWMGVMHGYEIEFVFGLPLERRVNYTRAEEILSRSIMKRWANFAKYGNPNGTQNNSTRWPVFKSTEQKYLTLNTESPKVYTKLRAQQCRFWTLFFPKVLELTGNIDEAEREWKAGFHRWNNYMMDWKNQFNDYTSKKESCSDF
Test: biochemical
Conditions: 15 min preincubation; read-out: IC50 (µM) BChE
property.measured: IC50

What does the record list as IC50 for CC(C)CC(=O)O[C@@H]1c2c(ccc3ccc(=O)oc23)OC(C)(C)[C@@H]1OC(=O)CC(C)C ? > 40 µM

What does the record list as IC50 for C/C=C(/C)C(=O)O[C@@H]1c2c(ccc3ccc(=O)oc23)OC(C)(C)[C@@H]1OC(=O)C(C)CC (some centres unmarked) ? > 40 µM

What does the record list as IC50 for CC(C)=CC(=O)O[C@@H]1[C@H](OC(=O)CC(C)C)c2c(ccc3ccc(=O)oc23)OC1(C)C ? > 40 µM

What does the record list as IC50 for C/C=C(/C)C(=O)O[C@@H]1[C@H](OC(=O)C=C(C)C)c2c(ccc3ccc(=O)oc23)OC1(C)C ? > 40 µM

What does the record list as IC50 for CC(C)=CC(=O)O[C@@H]1c2c(ccc3ccc(=O)oc23)OC(C)(C)[C@@H]1OC(=O)CC(C)C ? 12.5 µM

====

Biological target: BChE (from equine serum) (Equus caballus)
Construct: BChE (from equine serum); purchased Sigma-Aldrich; host or cells: equine serum
Test: biochemical
Details: 15 min preincubation; read-out: IC50 (µM) BChE
# IC50 per entry

compound	property.measured	measured.value
CCC(C)C(=O)O[C@@H]1c2c(ccc3ccc(=O)oc23)OC(C)(C)[C@@H]1OC(C)=O (stereo partly drawn)	IC50	> 40 µM

What does the record list as IC50 for C/C=C(/C)C(=O)OC1c2c(ccc3ccc(=O)oc23)OC(C)(C)C1OC(=O)CC(C)C (stereo not drawn) ? > 40 µM

What does the record list as IC50 for CCC(C)C(=O)O[C@@H]1c2c(ccc3ccc(=O)oc23)OC(C)(C)[C@@H]1OC(=O)CC(C)C (stereo partly drawn) ? > 40 µM

====

Target: AChE (Type VI-S; from Electrophorus electricus) (Electrophorus electricus, UniProt O42275)
Construct: AChE (Type VI-S; from Electrophorus electricus); purchased Sigma-Aldrich Type VI-S (catalogue number not given)
Assay: biochemical
Conditions: 15 min preincubation; read-out: IC50 (µM) AChE
# IC50 per entry

Reference set, count: 2
molecule	IC50
C/C=C(/C)C(=O)OC1c2c(ccc3ccc(=O)oc23)OC(C)(C)C1OC(=O)CC(C)C (stereo not drawn)	> 40 µM
CCC(C)C(=O)O[C@@H]1c2c(ccc3ccc(=O)oc23)OC(C)(C)[C@@H]1OC(C)=O (stereo partly drawn)	> 40 µM

Query molecule follows.
What does the record list as IC50 for CC(=O)O[C@@H]1[C@H](OC(=O)C=C(C)C)c2c(ccc3ccc(=O)oc23)OC1(C)C ? > 40 µM
